# total protein half-life in vivo per entry
assay: total protein half-life in vivo (active degradation + dilution); higher = more stable protein; conditions: wild type E. coli NCM3722; growth: C-lim chemostat; doubling time 6 h
Measured Quantity: total protein half-life in vivo (h)

>>> measurement("MSQLTHINAAGEAHMVDVSAKAETVREARAEAFVTMRSETLAMIIDGRHHKGDVFATARIAGIQAAKRTWDLIPLCHPLMLSKVEVNLQAEPEHNRVRIETLCRLTGKTGVEMEALTAASVAALTIYDMCKAVQKDMVIGPVRLLAKSGGKSGDFKVEADD [P0A738]")
4.96
>>> measurement("MRLCDRDIEAWLDEGRLSINPRPPVERINGATVDVRLGNKFRTFRGHTAAFIDLSGPKDEVSAALDRVMSDEIVLDEGEAFYLHPGELALAVTLESVTLPADLVGWLDGRSSLARLGLMVHVTAHRIDPGWSGCIVLEFYNSGKLPLALRPGMLIGALSFEPLSGPAVRPYNRREDAKYRNQQGAVASRIDKD")
4.81

* * *

assay: total protein half-life in vivo (active degradation + dilution); higher = more stable protein; settings: E. coli NCM3722 delta-lon; growth: N-lim chemostat; doubling time 6 h
# total protein half-life in vivo per entry
Measured Quantity: total protein half-life in vivo (h)

>>> measurement("MIKVLIVDDEPLARENLRVFLQEQSDIEIVGECSNAVEGIGAVHKLRPDVLFLDIQMPRISGLEMVGMLDPEHRPYIVFLTAFDEYAIKAFEEHAFDYLLKPIDEARLEKTLARLRQERSKQDVSLLPENQQALKFIPCTGHSRIYLLQMKDVAFVSSRMSGVYVTSHEGKEGFTELTLRTLESRTPLLRCHRQYLVNLAHLQEIRLEDNGQAELILRNGLTVPVSRRYLKSLKEAIGL [P0AFT5]")
5.56
>>> measurement("MMKRNILAVIVPALLVAGTANAAEIYNKDGNKVDLYGKAVGLHYFSKGNGENSYGGNGDMTYARLGFKGETQINSDLTGYGQWEYNFQGNNSEGADAQTGNKTRLAFAGLKYADVGSFDYGRNYGVVYDALGYTDMLPEFGGDTAYSDDFFVGRVGGVATYRNSNFFGLVDGLNFAVQYLGKNERDTARRSNGDGVGGSISYEYEGFGIVGAYGAADRTNLQEAQPLGNGKKAEQWATGLKYDANNIYLAANYGETRNATPITNKFTNTSGFANKTQDVLLVAQYQFDFGLRPSIAYTKSKAKDVEGIGDVDLVNYFEVGATYYFNKNMSTYVDYIINQIDSDNKLGVGSDDTVAVGIVYQF")
6.91
>>> measurement("MSDDNSHSSDTISNKKGFFSLLLSQLFHGEPKNRDELLALIRDSGQNDLIDEDTRDMLEGVMDIADQRVRDIMIPRSQMITLKRNQTLDECLDVIIESAHSRFPVISEDKDHIEGILMAKDLLPFMRSDAEAFSMDKVLRQAVVVPESKRVDRMLKEFRSQRYHMAIVIDEFGGVSGLVTIEDILELIVGEIEDEYDEEDDIDFRQLSRHTWTVRALASIEDFNEAFGTHFSDEEVDTIGGLVMQAFGHLPARGETIDIDGYQFKVAMADSRRIIQVHVKIPDDSPQPKLDE [P0AE78]")
5.54
>>> measurement("MTKQVKIYHNPRCSKSRETLNLLKENGVEPEVVLYLETPADAATLRDLLKILGMNSARELMRQKEDLYKELNLADSSLSEEALIQAMVDNPKLMERPIVVANGKARIGRPPEQVLEIVG")
4.45
